Here, each record is paired with measured viability increase data.
# assay-method-text: viability gain of MRP-1-high H69AR cells under doxorubicin, pilot screen, MRP-1 activator project, CellTiter-Glo, duplicate (AID 807);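 also: compound pretreatment 18-22 h then 72 h combined with doxorubicin; 0% = doxorubicin alone and 100% = vehicle without doxorubicin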
# assay-context: H69AR viability with doxorubicin, CellTiter-Glo luminescence; at 10 µM; stronger effect = higher value
measurement-type: viability increase (%)

{"compound": "O=C(O)CCCC(=O)N1CCc2cc(S(=O)(=O)N3CCc4ccccc43)ccc21", "measurement": -0.98}
{"compound": "CCOC(=O)c1ccc(N2CSC3=C(C#N)C(c4ccc(OC)cc4OC)CC(=O)N3C2)cc1 (stereo not given)", "measurement": -4.16}
{"compound": "O=C(Cn1cc2c(n1)CCCC2)Nc1ccccc1Cl", "measurement": -1.53}
{"compound": "CCOc1ccc(C(=O)Nc2c3c(nn2-c2cccc(C)c2C)CS(=O)C3)cc1 (stereo not given)", "measurement": -0.32}
{"compound": "Cc1cc(C)cc(NC(=O)CSc2nc3c(c(=O)n2C)SC(C)C3)c1 (stereo not given)", "measurement": -2.79}
